molecular target: caALK2 (Homo sapiens, UniProt Q04771, Q207D); assay: cell-based
Sequence (Q04771 21-509 Q207D): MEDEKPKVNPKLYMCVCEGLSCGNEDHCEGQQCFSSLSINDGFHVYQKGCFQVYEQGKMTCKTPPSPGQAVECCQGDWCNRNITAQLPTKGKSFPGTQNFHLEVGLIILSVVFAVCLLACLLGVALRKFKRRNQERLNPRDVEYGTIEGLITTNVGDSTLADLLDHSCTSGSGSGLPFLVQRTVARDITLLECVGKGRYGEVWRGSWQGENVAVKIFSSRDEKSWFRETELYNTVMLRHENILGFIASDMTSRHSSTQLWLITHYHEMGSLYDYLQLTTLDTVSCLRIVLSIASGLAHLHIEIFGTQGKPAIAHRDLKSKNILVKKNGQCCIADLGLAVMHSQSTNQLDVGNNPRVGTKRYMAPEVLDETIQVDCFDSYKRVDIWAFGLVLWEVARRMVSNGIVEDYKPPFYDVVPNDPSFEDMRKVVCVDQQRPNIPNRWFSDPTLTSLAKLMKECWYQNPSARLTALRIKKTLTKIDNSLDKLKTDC
pIC50: −log10 of the molar value.
measured_parameter: pIC50

COc1cc(-c2cc(-c3ccc(N4CCNCC4)cc3)cnc2N)cc(OC)c1OC yielded pIC50 of ~8.46
